assayed system: Protein deacetylase HDAC6 (Homo sapiens, UniProt Q9UBN7)
Sequence (Q9UBN7 whole entry): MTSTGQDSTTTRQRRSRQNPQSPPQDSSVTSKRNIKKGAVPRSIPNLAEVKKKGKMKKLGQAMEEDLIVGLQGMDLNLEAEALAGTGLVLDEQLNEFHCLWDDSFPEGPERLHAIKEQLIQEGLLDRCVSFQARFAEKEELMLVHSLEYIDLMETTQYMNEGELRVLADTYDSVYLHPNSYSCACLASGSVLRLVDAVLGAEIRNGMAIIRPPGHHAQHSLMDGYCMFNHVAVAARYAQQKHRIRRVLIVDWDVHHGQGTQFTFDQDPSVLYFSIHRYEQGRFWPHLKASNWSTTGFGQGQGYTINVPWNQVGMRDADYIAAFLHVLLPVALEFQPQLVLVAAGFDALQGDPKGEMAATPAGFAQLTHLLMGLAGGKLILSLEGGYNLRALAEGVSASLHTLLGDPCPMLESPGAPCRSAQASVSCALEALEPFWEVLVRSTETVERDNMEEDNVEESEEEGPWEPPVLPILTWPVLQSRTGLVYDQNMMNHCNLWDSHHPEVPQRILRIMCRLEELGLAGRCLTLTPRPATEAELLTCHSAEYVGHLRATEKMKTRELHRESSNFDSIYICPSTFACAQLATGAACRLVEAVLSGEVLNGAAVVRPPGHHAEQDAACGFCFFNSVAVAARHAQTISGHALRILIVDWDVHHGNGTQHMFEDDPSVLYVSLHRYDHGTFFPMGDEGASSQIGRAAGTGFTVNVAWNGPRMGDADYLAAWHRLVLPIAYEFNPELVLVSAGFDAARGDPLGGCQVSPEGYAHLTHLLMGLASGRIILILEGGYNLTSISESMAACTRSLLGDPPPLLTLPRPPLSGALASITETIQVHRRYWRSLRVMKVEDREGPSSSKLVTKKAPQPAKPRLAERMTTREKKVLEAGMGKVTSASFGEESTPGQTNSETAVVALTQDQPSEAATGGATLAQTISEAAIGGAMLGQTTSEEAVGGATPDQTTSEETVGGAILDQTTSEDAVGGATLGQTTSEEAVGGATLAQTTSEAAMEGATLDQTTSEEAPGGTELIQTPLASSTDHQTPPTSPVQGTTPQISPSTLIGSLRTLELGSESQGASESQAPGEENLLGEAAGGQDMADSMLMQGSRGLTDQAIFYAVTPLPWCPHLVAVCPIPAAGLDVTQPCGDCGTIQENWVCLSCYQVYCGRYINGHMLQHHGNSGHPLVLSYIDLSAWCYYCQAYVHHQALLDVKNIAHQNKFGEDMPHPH
readout label: IC50 (nM)
Express it in nM; write the number only.

| compound | IC50 / nM |
| --- | --- |
| OCc1ccc(-c2ccc(-c3ccc(CO)s3)o2)s1 | 556 |
| Cc1ccc(C(=O)Nc2ccc(CN3CCN(C)CC3)c(C(F)(F)F)c2)cc1C#Cc1cnc2[nH]ncc2c1 | 2080 |
| NC(=O)c1cccc(-c2cccc(OC(=O)NC3CCCCC3)c2)c1 | 874 |
| Oc1ccc(/C=C/c2cc(O)cc(O)c2)cc1 | 1330 |
| CCS(=O)(=O)c1ccc2oc(-c3ccc4ccccc4c3)nc2c1 | 528 |

Test system Protein deacetylase HDAC6 (Homo sapiens, UniProt Q9UBN7); read-out IC50; what value for OCCN1CCN(CCCN2c3ccccc3Sc3ccc(C(F)(F)F)cc32)CC1 ?
5620

Test system Protein deacetylase HDAC6 (Homo sapiens, UniProt Q9UBN7); read-out IC50; what value for CC(C)Nc1nc2cc(Cl)c(Cl)cc2n1[C@H]1O[C@@H](CO)[C@H](O)[C@@H]1O ?
669

Test system Protein deacetylase HDAC6 (Homo sapiens, UniProt Q9UBN7); read-out IC50; what value for c1ccc2[nH]c(-c3cscn3)nc2c1 ?
363

Test system Protein deacetylase HDAC6 (Homo sapiens, UniProt Q9UBN7); read-out IC50; what value for Cc1cccc(Nc2nc(-c3ccncc3)cs2)c1 ?
203

Test system Protein deacetylase HDAC6 (Homo sapiens, UniProt Q9UBN7); read-out IC50; what value for CN1CC(=O)N=C1NC(=O)Nc1cccc(Cl)c1 [FENOBAM ANHYDROUS] ?
678

Test system Protein deacetylase HDAC6 (Homo sapiens, UniProt Q9UBN7); read-out IC50; what value for O=c1c(O)c(-c2ccc(O)cc2)oc2cc(O)cc(O)c12 ?
1710

Test system Protein deacetylase HDAC6 (Homo sapiens, UniProt Q9UBN7); read-out IC50; what value for Nc1nc(N)c2nc(-c3cccc(O)c3)cnc2n1 ?
1470
